B1: PLAGL1 (parent)
chain: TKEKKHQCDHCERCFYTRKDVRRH

variants of: B1; experiment: protein stability index of a GFP-peptide fusion (GPS, HEK-293T) (PSI 1-6); higher = more stable; details: c terminus: a fixed tail appended;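 note: lentivirally expressed fusions sorted by FACS into six bins by GFP to DsRed ratio, PSI derived from sequencing read proportions per bin multiplied by bin number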
reportedMetric: protein stability index
Answer with the value's number alone.

(Q) Give a short answer stating reported protein stability index for C14L .
(A) 3.06

(Q) Recall and state the measured protein stability index for C11K .
(A) 3.86

(Q) Consider the variant H24N and give its recorded protein stability index.
(A) 2.89

(Q) // fetch protein stability index given entry C8G
(A) 3.02

(Q) Quote protein stability index reported for Q7W please.
(A) 2.77

(Q) Answer with the recorded protein stability index for the variant listed here: E3H
(A) 3.55

(Q) Respond only with protein stability index recorded for E3P
(A) 3.63

(Q) Check the records and state protein stability index for Q7Y
(A) 2.81

(Q) Let me know recorded protein stability index for Y16Q , thanks.
(A) 3.88

(Q) Read off the recorded protein stability index for D9P
(A) 3.11

(Q) Quote protein stability index reported for H24A please.
(A) 3.79
